tested on: Avena fatua (AVEFA); experiment: Example B pre-emergence herbicidal test, glasshouse; format: in vivo; details: 312 h, rate 250 g/ha, evaluated after 13 days, 100=total damage to plant, 0=no damage to plant
Please go through the items and note down their pest or weed control at 250 g/ha.
Numbers only, in %.

STRUCTURE NOTATION	pest or weed control at 250 g/ha [%]
Cc1cc(Br)ccc1-c1nc(C2=C(OC(=O)C3CC3)C(C)(C)OC(C)(C)C2=O)c(C)s1	0
Cc1sc(-c2ccc(OC(F)F)cc2)nc1C1C(=O)C(C)(C)OC(C)(C)C1=O	0

# batch: return pest or weed control at 250 g/ha for each of the 8 compounds below
1. Cc1sc(-c2ccc(I)cc2)nc1C1C(=O)C(C)(C)OC(C)(C)C1=O
2. CCc1sc(-c2c(C)cc(Cl)cc2F)nc1C1C(=O)C(C)(C)OC(C)(C)C1=O
3. Cc1sc(-c2ccc(Cl)cc2F)nc1C1C(=O)C(C)(C)OC(C)(C)C1=O
4. Cc1sc(OCc2cnc(Br)s2)nc1C1C(=O)C(C)(C)OC(C)(C)C1=O
5. CCc1sc(-c2ccc(Br)cc2)nc1C1C(=O)C(C)(C)OC(C)(C)C1=O
6. CCc1sc(-c2ccc(SC)cc2)nc1C1C(=O)C(C)(C)OC(C)(C)C1=O
7. Cc1cc(Cl)ccc1-c1nc(C2C(=O)C(C)(C)C(=O)C(C)(C)C2=O)c(C)s1
8. CCc1sc(-c2ccc(OC(F)F)cc2)nc1C1C(=O)C(C)(C)OC(C)(C)C1=O

1. 80
2. 0
3. 0
4. 0
5. 20
6. 0
7. 0
8. 0

# batch: return pest or weed control at 250 g/ha for each of the 2 compounds below
1. Cc1sc(-c2ccc(Cl)c(F)c2)nc1C1C(=O)C(C)(C)OC(C)(C)C1=O
2. CCc1sc(-c2ccc(Br)cc2C)nc1C1C(=O)C(C)(C)OC(C)(C)C1=O

20
30

# batch: return pest or weed control at 250 g/ha for each of the 7 compounds below
1. CCc1sc(-c2ccc(Cl)cc2F)nc1C1C(=O)C(C)(C)OC(C)(C)C1=O
2. CC(=O)OC1=C(c2nc(-c3ccc(Br)cn3)sc2C)C(=O)C(C)(C)OC1(C)C
3. CCc1sc(-c2ccc(Br)cc2F)nc1C1C(=O)C(C)(C)OC(C)(C)C1=O
4. Cc1sc(-c2ccc(Br)cn2)nc1C1=C(OC(=O)C2CC2)C(C)(C)OC(C)(C)C1=O
5. Cc1sc(-c2ccc(Cl)s2)nc1C1C(=O)C(C)(C)OC(C)(C)C1=O
6. CC(=O)OC1=C(c2sc(-c3ccc(Cl)cc3)nc2C)C(=O)C(C)(C)OC1(C)C
7. CCc1sc(-c2ccc(Cl)cc2C)nc1C1C(=O)C(C)(C)OC(C)(C)C1=O

[90, 0, 90, 0, 0, 0, 0]

* * *

Please go through the items and note down their pest or weed control at 250 g/ha.
System: Avena fatua (AVEFA)
Test: Example B pre-emergence herbicidal test, glasshouse
Type: in vivo
Conditions: 312 h, rate 250 g/ha, evaluated after 13 days, 100=total damage to plant, 0=no damage to plant
Method: Seeds of a variety of test species were sown in standard soil in pots. […] After 13 days for pre and post-emergence, the test was evaluated (100=total damage to plant; 0=no damage to plant). […]

STRUCTURE NOTATION	MEASURED VALUE
CCc1sc(-c2ccc(Cl)c(F)c2)nc1C1C(=O)C(C)(C)OC(C)(C)C1=O	60%
Cc1sc(COc2ccc(Cl)cc2)nc1C1C(=O)C(C)(C)OC(C)(C)C1=O	0%
CC(=O)OC1=C(c2nc(-c3ccc(Br)cc3C)sc2C)C(=O)C(C)(C)OC1(C)C	80%

Give the reported pest or weed control at 250 g/ha for this molecule. `Cc1sc(-c2ccc(Br)cc2F)nc1C1C(=O)C(C)(C)OC(C)(C)C1=O` 0%
